Target: purified rabbit bone collagenase (Oryctolagus cuniculus)
Sequence (P13943 99-468): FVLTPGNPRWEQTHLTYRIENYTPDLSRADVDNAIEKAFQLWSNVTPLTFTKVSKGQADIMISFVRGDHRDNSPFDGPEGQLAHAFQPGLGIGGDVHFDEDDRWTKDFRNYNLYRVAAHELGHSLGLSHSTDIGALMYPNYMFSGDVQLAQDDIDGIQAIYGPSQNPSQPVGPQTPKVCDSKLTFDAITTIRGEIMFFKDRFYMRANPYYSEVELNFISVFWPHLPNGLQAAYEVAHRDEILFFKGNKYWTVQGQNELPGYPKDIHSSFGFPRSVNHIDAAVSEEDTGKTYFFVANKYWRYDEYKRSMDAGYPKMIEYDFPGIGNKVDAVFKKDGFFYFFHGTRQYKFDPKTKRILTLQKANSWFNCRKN
pIC50: −log10 of the molar value.
Listing of entries alongside the reported pIC50.
readout type: pIC50

1) CNC(=O)[C@H](Cc1ccc(OC)cc1)NC(=O)C(CC(C)C)C(S)CC(=O)OC (mixture of isomers) [2 mixture of diastereoisomers]	7.00
2) CNC(=O)[C@H](Cc1ccc(OC)cc1)NC(=O)C(CC(C)C)C(S)CC(=O)OCc1ccccc1 (single isomer, unassigned) [4 B]	6.57
3) CNC(=O)[C@H](Cc1ccc(OC)cc1)NC(=O)C(CC(C)C)C(S)CC(=O)OCc1ccccc1 (single isomer, unassigned) [4 D]	4.90
4) CNC(=O)[C@H](Cc1ccc(OC)cc1)NC(=O)C(CC(C)C)C(S)CC(=O)OCc1ccccc1 (single isomer, unassigned) [4 C]	6.64
